- procedure-summary: qHTS assay to test for compound auto fluorescence at 535 nm (green) in HEK293 cell free culture (AID 720682)
- condition-set: cell-free medium, green autofluorescence 485/535 nm; series mostly up to 91.3 µM
The source made the active and inactive calls. Calls come from the whole dose curve; as a rule, active = well fitted curve in the direction sought with a large enough effect in the repeat runs; inconclusive = weak or mixed curves; inactive = flat fitted curve, though single readings scatter.
measure-name: outcome

Worked examples follow.
{"molecule": "O=S(=O)(O)c1ccc2ccccc2c1", "outcome": "inactive"}
{"molecule": "N[C@@H](Cc1cc(I)c(Oc2cc(I)c(O)c(I)c2)c(I)c1)C(=O)O", "outcome": "inactive"}
{"molecule": "CCCCCC(N)=O", "outcome": "inactive"}
{"molecule": "c1ccc2scnc2c1", "outcome": "inactive"}
{"molecule": "O=C1CCC(N2C(=O)c3ccccc3C2=O)C(=O)N1 (stereo not given)", "outcome": "inactive"}
{"molecule": "Cc1ccc(N(C)C)cc1", "outcome": "inactive"}
{"molecule": "COc1cc(Cc2cnc(N)nc2N)cc(OC)c1OC", "outcome": "inactive"}
{"molecule": "Cc1ccc(S(N)(=O)=O)cc1", "outcome": "inactive"}
{"molecule": "CCCCN(CCCC)CCCC", "outcome": "inactive"}
{"molecule": "CCc1cccc(C)c1N", "outcome": "inactive"}

Lookup result for `C#C[C@]1(O)CC[C@H]2[C@@H]3CCC4=CC(=O)CC[C@@H]4[C@H]3CC[C@@]21C` ; measured outcome: inactive

Form: molecule = `O=C(O)c1cc(O)c(O)c(O)c1` ; outcome = inactive

Recorded outcome (molecule `CCN(CC)c1ccc(C(=O)c2ccccc2C(=O)O)c(O)c1` ): inactive
